From: ChEMBL document CHEMBL1157712

Recorded measurements of IC50, one per entry
# measurement-target: Cytochrome P450 1A2 (Homo sapiens, UniProt P05177)
# Sequence (P05177 whole entry): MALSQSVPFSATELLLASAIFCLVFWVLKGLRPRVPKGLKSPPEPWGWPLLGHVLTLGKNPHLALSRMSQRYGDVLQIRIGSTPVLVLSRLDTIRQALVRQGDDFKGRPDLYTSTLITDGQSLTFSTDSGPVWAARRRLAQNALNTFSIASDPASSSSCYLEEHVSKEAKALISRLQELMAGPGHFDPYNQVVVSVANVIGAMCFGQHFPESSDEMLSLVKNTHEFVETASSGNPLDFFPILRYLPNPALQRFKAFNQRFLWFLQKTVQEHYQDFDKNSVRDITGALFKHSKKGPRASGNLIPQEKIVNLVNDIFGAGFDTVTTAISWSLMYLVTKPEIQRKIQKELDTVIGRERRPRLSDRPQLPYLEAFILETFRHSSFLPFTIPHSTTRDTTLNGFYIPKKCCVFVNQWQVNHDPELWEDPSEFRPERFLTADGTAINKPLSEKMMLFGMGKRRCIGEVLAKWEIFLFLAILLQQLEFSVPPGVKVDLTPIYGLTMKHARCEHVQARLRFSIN
# test-name: Inhibition of human CYP1A2 by LCMS/MS assay
# Assay type: ADME

{"item-smiles": "COc1ccc(C(=O)NCc2cccc(C(=O)Nc3ccc(CN(C)C)cc3)c2)cc1C", "metric-name": "IC50", "val": "> 30 µM"}

Field IC50 (entry COc1ccc(C(=O)NCc2cccc(C(=O)Nc3ccc(CO)cc3)c2)cc1OC ) reads > 30 µM

Field IC50 (entry COc1ccc(C(=O)NCc2cccc(C(=O)Nc3ccc(CN(C)C)cc3)c2)cc1Cl ) reads > 30 µM
